system: K. pneumoniae; experiment: AK assay 384-well format, Prestwick library screening; type: cell-based, Klebsiella pneumoniae; settings: Klebsiella pneumoniae, 3 h, 50 μM final drug concentration; […]; read-out: AK-based Prestwick Library Screening Results, K. pneumoniae (fold increase in extracellular AK activity)
Structures can show the parent of a compound that is named as a salt.
OBSERVABLE: fold induction at 50 µM

>  <COMPOUND>
C[C@@H]1C[C@@H]([C@H](O)CC2CC(=O)NC(=O)C2)C(=O)[C@@H](C)C1 [Cycloheximide]

>  <TEST_VALUE>
1

$$$$
>  <COMPOUND>
CCC(=O)O[C@@](Cc1ccccc1)(c1ccccc1)[C@@H](C)CN(C)C [Levopropoxyphene napsylate]

>  <TEST_VALUE>
0.6

$$$$
>  <COMPOUND>
CN1[C@@H]2C[C@@H](OC(=O)[C@H](CO)c3ccccc3)C[C@H]1[C@@H]1O[C@@H]12 [Scopolamine hydrochloride]

>  <TEST_VALUE>
1.1

$$$$
>  <COMPOUND>
CCC(=O)OCC(=O)[C@@]1(OC(=O)CC)[C@H](C)C[C@H]2[C@H]3[C@H]([C@@H](O)C[C@@]21C)[C@@]1(C)C=CC(=O)C=C1C[C@H]3Cl [Alclometasone dipropionate]

>  <TEST_VALUE>
1.1

$$$$
